Listed here: items and their measured total protein half-life in vivo.
Test: total protein half-life in vivo (active degradation + dilution); higher = more stable protein
Details: wild type E. coli NCM3722; growth: P-lim chemostat; doubling time 12 h

| residueString | total protein half-life in vivo |
| --- | --- |
| MLNIVLYEPEIPPNTGNIIRLCANTGFRLHIIEPMGFAWDDKRLRRAGLDYHEFTAVTRHHDYRAFLEAENPQRLFALTTKGTPAHSAVSYQDGDYLMFGPETRGLPASILDALPAEQKIRIPMVPDSRSMNLSNAVSVVVYEAWRQLGYPGAVLRD [P0AGJ7] | 11.9 h |
| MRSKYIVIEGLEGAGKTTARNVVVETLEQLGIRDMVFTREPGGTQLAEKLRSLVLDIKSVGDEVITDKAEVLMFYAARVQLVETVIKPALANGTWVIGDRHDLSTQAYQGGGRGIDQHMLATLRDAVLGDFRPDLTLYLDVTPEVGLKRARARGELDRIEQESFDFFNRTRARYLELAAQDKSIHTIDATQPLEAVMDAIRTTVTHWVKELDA [P0A720] | 11.3 h |
